measured on: SRC (Homo sapiens, UniProt P12931)
Sequence (P12931 whole entry): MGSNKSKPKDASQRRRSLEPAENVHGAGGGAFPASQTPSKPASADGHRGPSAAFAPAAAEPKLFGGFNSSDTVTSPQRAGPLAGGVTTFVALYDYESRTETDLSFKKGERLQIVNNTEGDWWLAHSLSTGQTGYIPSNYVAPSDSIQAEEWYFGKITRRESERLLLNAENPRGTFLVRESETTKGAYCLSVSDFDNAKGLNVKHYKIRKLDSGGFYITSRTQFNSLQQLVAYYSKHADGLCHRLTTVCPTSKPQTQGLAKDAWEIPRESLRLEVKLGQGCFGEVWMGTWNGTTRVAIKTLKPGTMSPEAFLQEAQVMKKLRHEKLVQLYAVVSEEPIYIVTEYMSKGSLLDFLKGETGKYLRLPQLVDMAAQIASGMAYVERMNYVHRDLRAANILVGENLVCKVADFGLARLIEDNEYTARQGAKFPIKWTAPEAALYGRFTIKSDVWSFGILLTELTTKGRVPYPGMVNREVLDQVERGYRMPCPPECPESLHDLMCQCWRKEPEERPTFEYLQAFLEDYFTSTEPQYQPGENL
assay comment: Inhibition of a panel of kinases, in vitro HotSpot kinase assay: SRC
Assay type: biochemical
condition parameters: D-compounds panel data; 1 μM ATP
endpoint name: IC50

Below: 4 compounds and their reported IC50.
[
  {
    "smiles": "CCN(CC)c1ccc(C(=O)N[C@@H]2CCCN(c3cnc(C(N)=O)c(Nc4cnn(C)c4)n3)[C@@H]2C)cc1",
    "IC50": "10 to 100 nM"
  },
  {
    "smiles": "C[C@@H]1[C@H](NC(=O)c2ccc(C(C)(C)C)cc2F)CCCN1c1cnc(C(N)=O)c(Nc2cnn(C)c2)n1",
    "IC50": "100 to 1000 nM"
  },
  {
    "smiles": "CC(=O)NC(C)(C)c1ccc(C(=O)N[C@@H]2CCCN(c3cnc(C(N)=O)c(Nc4cnn(C)c4)n3)[C@@H]2C)cc1",
    "IC50": "10 to 100 nM"
  },
  {
    "smiles": "C[C@@H]1[C@H](NC(=O)c2ccc(C3CC3)cc2)CCCN1c1cnc(C(N)=O)c(Nc2ccc(OC3CCN(C4CCCC4)CC3)cc2)n1",
    "IC50": "10 to 100 nM"
  }
]

Entry C[C@@H]1[C@H](NC(=O)c2cnc(C3CC3)nc2)CCCN1c1cnc(C(N)=O)c(Nc2cnn(C)c2)n1 ; IC50 = 10 to 100 nM

Entry NC(=O)c1ncc(N2CCC[C@@H](NC(=O)c3ccc(C4CC4)cc3F)C2)nc1Nc1cc(-c2ccccc2)ns1 ; IC50 = > 10000 nM

Entry C[C@@H]1[C@H](NC(=O)c2cnc(C(C)(C)C)s2)CCCN1c1cnc(C(N)=O)c(Nc2cnn(C)c2)n1 ; IC50 = 10 to 100 nM
